Entries and their measured EC50 follow.
Biological target: Steroidogenic factor 1 (Homo sapiens, UniProt Q13285)
Sequence (Q13285 whole entry): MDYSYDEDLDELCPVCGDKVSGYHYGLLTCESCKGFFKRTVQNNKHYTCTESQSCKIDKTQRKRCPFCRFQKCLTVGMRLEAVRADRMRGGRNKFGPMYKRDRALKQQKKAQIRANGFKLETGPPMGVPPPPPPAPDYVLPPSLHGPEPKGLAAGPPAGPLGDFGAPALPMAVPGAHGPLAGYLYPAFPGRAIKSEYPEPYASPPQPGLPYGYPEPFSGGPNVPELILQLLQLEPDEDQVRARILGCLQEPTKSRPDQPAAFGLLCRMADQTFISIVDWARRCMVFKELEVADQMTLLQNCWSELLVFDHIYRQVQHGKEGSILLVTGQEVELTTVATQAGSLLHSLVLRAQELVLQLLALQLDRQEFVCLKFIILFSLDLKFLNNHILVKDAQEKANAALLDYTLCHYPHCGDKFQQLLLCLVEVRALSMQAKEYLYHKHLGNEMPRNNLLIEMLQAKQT
Assay: SF-1 driven luciferase reporter response, dose response, counter-screen for RORA activator project, CHO-K1 cells (AID 695)
Measured Attribute: EC50 (nM)

> print(dat)
                                   compound  measured.attribute  units.text  inequality.symbol  value.observed
1  CCCCOC(=O)C(C)Oc1ccc(=O)n(-c2ccccc2)n1 (stereo unspecified)                EC50          nM                  >           99000
2           COc1cccc(-c2noc(-c3cccnc3)n2)c1                EC50          nM                  =            1740
3                Clc1ccccc1OCCn1cnc2ccccc21                EC50          nM                  =            3670
4    Cc1cc(NCCOCCO)n2ncc(-c3ccc(Cl)cc3)c2n1                EC50          nM                  =             485
5  CCOc1ccc2nc(N3CCC(C(=O)N4CCN(c5ccccn5)CC4)CC3)sc2c1 [MLS000119552]                EC50          nM                  >           99000
6         Cn1cccc1C(=O)OCc1csc(-c2ccccc2)n1                EC50          nM                  =             129

----------
Target: Steroidogenic factor 1 (Homo sapiens)
Assay: SF-1 driven luciferase reporter response, dose response, counter-screen for RORA activator project, CHO-K1 cells (AID 695)
Conditions: inactive by the depositor's call
Entries and their measured EC50 follow.
Measured Attribute: EC50 (µM)

> print(dat)
                           structure.string  value.observed
1  O=C(c1ccco1)N1CCN(c2ncnc3c(-c4ccccc4)nsc23)CC1              21
2         O=c1c2ccccc2nc2ccc(NCc3ccco3)nn12            27.3
3            O=C(NC1CCCC1)c1cc(-c2cccs2)on1            10.9
4      O=C(CSc1nc[nH]n1)Nc1nnc(-c2ccccc2)s1            12.7

----------
Target: UniProt Q13285
Assay: SF-1 driven luciferase reporter response, dose response, counter-screen for RORA activator project, CHO-K1 cells (AID 695)
Entries and their measured EC50 follow.
Measured Attribute: EC50 (µM)

> print(dat)
                                   compound  measured.attribute  units.text  inequality.symbol  value.observed
1  COCCOC(=O)c1[nH]c2c(c1C)C(=O)CC(c1cc(OC)ccc1OC)C2 (stereo unspecified)                EC50          µM                  =            7.67
2         CCn1c(-c2ccc(N(C)C)cc2)nc2ccccc21                EC50          µM                  =            0.54
3  O=C1OC(N2CCN(Cc3ccccc3)CC2)c2ccccc21 (stereo unspecified)                EC50          µM                  >              99
4  COc1ccc2nc(NC(=O)CSc3nnc(-c4ccoc4C)n3C)sc2c1 [MLS000073639]                EC50          µM                  =            4.83
5        CCOc1ccc(-c2nc(C#N)c(NC3CC3)o2)cc1                EC50          µM                  =            4.02
6      O=C(Nc1ccc(N2CCCCC2)cc1)c1cncc(Br)c1                EC50          µM                  =            1.06

Recorded values, source BindingDB's records for doi:10.7270/Q2028PXQ.
